Catalogue of molecules with associated pIC50
ASSAYED_TARGET: NRAS Q61R (Homo sapiens (Human), UniProt P01111+P62937, Q61R)
Sequence (P01111 whole entry Q61R): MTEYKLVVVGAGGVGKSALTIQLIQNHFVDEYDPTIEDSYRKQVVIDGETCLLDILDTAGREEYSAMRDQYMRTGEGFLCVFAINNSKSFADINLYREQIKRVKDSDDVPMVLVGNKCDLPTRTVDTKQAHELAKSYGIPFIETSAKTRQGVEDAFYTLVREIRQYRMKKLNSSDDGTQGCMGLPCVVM
Sequence (P62937 whole entry): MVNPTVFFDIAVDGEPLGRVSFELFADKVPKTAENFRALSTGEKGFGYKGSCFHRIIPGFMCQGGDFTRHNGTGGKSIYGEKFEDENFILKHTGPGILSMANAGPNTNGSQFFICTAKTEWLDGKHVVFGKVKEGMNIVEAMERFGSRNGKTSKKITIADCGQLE
PROCEDURE_TEXT: Ras-Raf (BRAF RBD) disruption / FRET / MOA assay, NRAS Q61R
Format: biochemical
ASSAY_SETUP: NRAS Q61R; Ras-Raf disruption/FRET/MOA assay; read-out: IC50* NRAS Q61R FRET data
pIC50: −log10 of the molar value.

MOLECULE	pIC50
C=CC(=O)N1CC[C@]2(C1)CN(C(=O)N(C)[C@H](C(=O)N[C@H]1Cc3nc(cs3)-c3ccc4c(c3)c(c(-c3cccnc3[C@H](C)OC)n4CC)CC(C)(C)COC(=O)[C@@H]3CCCN(N3)C1=O)C(C)C)CCO2 (atropisomer, axis not shown)	6.00 to 7.00
C=CC(=O)N1CC(N(C)C(=O)N(C)[C@H](C(=O)N[C@H]2Cc3nc(cs3)-c3ccc4c(c3)c(c(-c3cccnc3[C@H](C)OC)n4CC(F)(F)F)CC(C)(C)COC(=O)[C@@H]3CCCN(N3)C2=O)C(C)C)C1 (atropisomer, axis not shown)	6.00 to 7.00
C=CC(=O)N1CC[C@H](C(=O)N(C)[C@H](C(=O)N[C@H]2Cc3cccc(c3)-c3ccc4c(c3)c(c(-c3cnn(C)c3CN(C)C)n4CC)CC(C)(C)COC(=O)[C@@H]3CCCN(N3)C2=O)C(C)C)C1 (relative stereo)	< 5.00
C=CC(=O)N(C)C[C@H]1CCN(C(=O)N(C)[C@H](C(=O)N[C@H]2Cc3nc(cs3)-c3ccc4c(c3)c(c(-c3cccnc3[C@H](C)OC)n4CC)CC(C)(C)COC(=O)[C@@H]3CCCN(N3)C2=O)C(C)C)C1 (atropisomer, axis not shown)	6.00 to 7.00
C=CC(=O)N1CCC[C@@H]2CN(C(=O)N(C)[C@H](C(=O)N[C@H]3Cc4nc(cs4)-c4ccc5c(c4)c(c(-c4cccnc4[C@H](C)OC)n5CC)CC(C)(C)COC(=O)[C@@H]4CCCN(N4)C3=O)C(C)C)C[C@@H]21 (atropisomer, axis not shown)	6.00 to 7.00
C=CC(=O)Nc1ccc(C(=O)N(C)[C@H](C(=O)N[C@H]2Cc3cc(O)cc(c3)-c3ccc4c(c3)c(c(-c3cccnc3[C@H](C)OC)n4CC)CC(C)(C)COC(=O)[C@@H]3CCCN(N3)C2=O)C(C)C)nc1 (atropisomer, axis not shown)	5.00 to 6.00
C=CC(=O)N1CC[C@@H]2[C@H](C1)CN2C(=O)N(C)[C@H](C(=O)N[C@H]1Cc2nc(cs2)-c2ccc3c(c2)c(c(-c2cccnc2[C@H](C)OC)n3CC)CC(C)(C)COC(=O)[C@@H]2CCCN(N2)C1=O)C(C)C (atropisomer, axis not shown)	6.00 to 7.00
C=CC(=O)N1CC2(CCN2C(=O)N(C)[C@H](C(=O)N[C@H]2Cc3nc(cs3)-c3ccc4c(c3)c(c(-c3cccnc3[C@H](C)OC)n4CC)CC(C)(C)COC(=O)[C@@H]3CCCN(N3)C2=O)C(C)C)C1 (atropisomer, axis not shown)	7.00 to 8.00
CC#CC(=O)N1CCC(C(=O)N(C)[C@H](C(=O)N[C@H]2Cc3nc(cs3)-c3ccc4c(c3)c(c(-c3cccnc3[C@H](C)OC)n4CC)CC(C)(C)COC(=O)[C@@H]3CCCN(N3)C2=O)C(C)C)C1 (atropisomer, axis not shown)	5.00 to 6.00
C=CC(=O)N1CCC2(CCCN(C(=O)N(C)[C@H](C(=O)N[C@H]3Cc4nc(cs4)-c4ccc5c(c4)c(c(-c4cccnc4[C@H](C)OC)n5CC)CC(C)(C)COC(=O)[C@@H]4CCCN(N4)C3=O)C(C)C)C2)CC1 (atropisomer, axis not shown)	6.00 to 7.00
CCn1c(-c2cccnc2[C@H](C)OC)c2c3cc(ccc31)-c1cccc(c1)C[C@H](NC(=O)[C@H](C(C)C)N(C)C(=O)N1CCC13CN(C(=O)C#CC(C)(C)N(C)C)C3)C(=O)N1CCC[C@H](N1)C(=O)OCC(C)(C)C2	6.00 to 7.00
C=CC(=O)N1CCC[C@]12CCN(C(=O)N(C)[C@H](C(=O)N[C@H]1Cc3nc(cs3)-c3ccc4c(c3)c(c(-c3cccnc3[C@H](C)OC)n4CC)CC(C)(C)COC(=O)[C@@H]3CCCN(N3)C1=O)C(C)C)C2 (atropisomer, axis not shown)	6.00 to 7.00
CCn1c(-c2cccnc2[C@H](C)OC)c2c3cc(ccc31)-c1csc(n1)C[C@H](NC(=O)[C@H](C(C)C)N(C)C(=O)N1CCC13CN(C(=O)/C=C/CN1CCOCC1)C3)C(=O)N1CCC[C@H](N1)C(=O)OCC(C)(C)C2 (atropisomer, axis not shown)	7.00 to 8.00
C=CC(=O)N1CCN(C(=O)N(C)[C@H](C(=O)N[C@H]2Cc3nc(cs3)-c3ccc4c(c3)c(c(-c3cccnc3[C@H](C)OC)n4CC)CC(C)(C)COC(=O)[C@@H]3CCCN(N3)C2=O)C(C)C)[C@@H]2CC[C@@H]21 (atropisomer, axis not shown)	6.00 to 7.00
CCn1c(-c2cccnc2[C@H](C)OC)c2c3cc(ccc31)-c1cccc(c1)C[C@H](NC(=O)[C@@H](COC1CN(C(=O)C#C[C@@H]3OCCCN3C)C1)C(C)C)C(=O)N1CCC[C@H](N1)C(=O)OCC(C)(C)C2 (atropisomer, axis not shown)	< 5.00

* * *

ASSAYED_TARGET: K-Ras G13C (Homo sapiens (Human), UniProt P01116+P62937, G13C)
Sequence (P01116-2 other isoform, or with tags, fused parts or gaps G13C): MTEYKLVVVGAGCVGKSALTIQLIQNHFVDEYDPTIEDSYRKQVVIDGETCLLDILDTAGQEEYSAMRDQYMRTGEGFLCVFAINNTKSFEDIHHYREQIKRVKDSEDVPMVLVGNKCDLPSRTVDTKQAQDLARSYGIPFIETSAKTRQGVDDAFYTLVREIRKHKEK
Sequence (P62937 whole entry): as the sequence (P62937 whole entry) above
PROCEDURE_TEXT: Ras-Raf (BRAF RBD) disruption / FRET / MOA assay, KRAS G13C
Assay type: biochemical
ASSAY_SETUP: KRAS G13C; Ras-Raf disruption/FRET/MOA assay; read-out: IC50* KRAS G13C FRET data
Protocol: The purpose of this biochemical assay is to measure the ability of test compounds to facilitate ternary complex formation between a nucleotide-loaded Ras isoform and cyclophilin A; the resulting ternary complex disrupts binding to a BRAF^RBD construct, inhibiting Ras signaling through a RAF effector. Compound is present in plate wells as a 10-point 3-fold dilution series starting at a final concentration of 30 μM. […]
Quick list: IC50 per entry.

COMPOUND	IC50
C=CC(=O)N1CC[C@@]2(C1)CN(C(=O)N(C)[C@H](C(=O)N[C@H]1Cc3nc(cs3)-c3ccc4c(c3)c(c(-c3cccnc3[C@H](C)OC)n4CC)CC(C)(C)COC(=O)[C@@H]3CCCN(N3)C1=O)C(C)C)CCO2 (atropisomer, axis not shown) [Example A353]	100 to 1000 nM
CCn1c(-c2cccnc2COC)c2c3cc(ccc31)-c1cc(O)cc(c1)C[C@H](NC(=O)[C@H](C(C)C)N(C)C(=O)[C@H]1CCN(C(=O)C#CC3(N(C)C)CC3)C1)C(=O)N1CCC[C@H](N1)C(=O)OCC(C)(C)C2 [Example A238]	100 to 1000 nM
C=CC(=O)N1C[C@@H](C(=O)N(C)[C@@H](C(=O)N[C@H]2Cc3cc(O)cc(c3)-c3ccc4c(c3)c(c(-c3cccnc3COC)n4CC)CC(C)(C)COC(=O)[C@@H]3CCCN(N3)C2=O)C(C)C)C[C@H]1C [Example A159]	> 10000 nM
C=CC(=O)N1CC[C@H](C(=O)N(C)[C@H](C(=O)N[C@H]2CN3CCC=C(C3)c3ccc4c(c3)c(c(-c3cccnc3[C@H](C)OC)n4CC)CC(C)(C)COC(=O)[C@@H]3CCCN(N3)C2=O)C(C)C)C1 (atropisomer, axis not shown) [Example A716]	1000 to 10000 nM

* * *

ASSAYED_TARGET: KRAS Q61H (Homo sapiens (Human), UniProt P01116+P62937, Q61H)
Sequence (P01116-2 other isoform, or with tags, fused parts or gaps Q61H): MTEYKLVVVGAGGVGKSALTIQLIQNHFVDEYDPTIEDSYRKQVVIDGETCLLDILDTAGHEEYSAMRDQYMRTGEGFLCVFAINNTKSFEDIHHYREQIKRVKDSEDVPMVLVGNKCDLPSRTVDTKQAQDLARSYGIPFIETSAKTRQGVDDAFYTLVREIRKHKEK
Sequence (P62937 whole entry): as the sequence (P62937 whole entry) above
PROCEDURE_TEXT: Ras-Raf (BRAF RBD) disruption / FRET / MOA assay, KRAS Q61H
Format: biochemical
ASSAY_SETUP: Ras-Raf disruption/FRET/MOA assay; class symbols; read-out: KRAS Q61H FRET data IC50
Procedure: The purpose of this biochemical assay is to measure the ability of test compounds to facilitate ternary complex formation between a nucleotide-loaded Ras isoform and cyclophilin A; the resulting ternary complex disrupts binding to a BRAF^RBD construct, inhibiting Ras signaling through a RAF effector. […]. Compound is present in plate wells as a 10-point 3-fold dilution series starting at a final concentration of 30 μM. […]
QUANTITY_MEASURED: IC50

MOLECULE	QUANTITY_MEASURED	TEST_RESULT
CCn1c(-c2cccnc2[C@H](C)OC)c2c3cc(ccc31)-c1cc(CF)cc(c1)C[C@H](NC(=O)[C@@H](COC1CN(C(=O)C#CC(C)(C)N(C)C)C1)C(C)C)C(=O)N1CCC[C@H](N1)C(=O)OCC(C)(C)C2 (atropisomer, axis not shown)	IC50	> 10000 nM
C=CC(=O)N1CC(OC[C@H](C(=O)N[C@H]2Cc3cc(F)cc(c3)-c3ccc4c(c3)c(c(-c3cccnc3[C@H](C)OC)n4CC(F)(F)F)CC(C)(C)COC(=O)[C@@H]3CCCN(N3)C2=O)C(C)C)C1 (atropisomer, axis not shown)	IC50	100 to 1000 nM
C=CC(=O)N1CCN(C(=O)N(C)[C@H](C(=O)N[C@H]2Cc3nc(cs3)-c3ccc4c(c3)c(c(-c3cccnc3[C@H](C)OC)n4CC)CC(C)(C)COC(=O)[C@@H]3CCCN(N3)C2=O)C(C)C)CC1 (atropisomer, axis not shown) [Example A493]	IC50	10 to 100 nM
CCn1c(-c2cccnc2[C@H](C)OC)c2c3cc(ccc31)-c1csc(n1)C[C@H](NC(=O)CN1CC[C@@]3(CCN(C(=O)C#CC(C)(C)N4CCC4)C3)C1)C(=O)N1CCC[C@H](N1)C(=O)OCC(C)(C)C2 (atropisomer, axis not shown)	IC50	1000 to 10000 nM
C=CC(=O)N1CC[C@H](C(=O)N(C)[C@H](C(=O)N[C@H]2Cc3cc(O)cc(c3)-c3ccc4c(c3)c(c(-c3cccnc3[C@@H](OC)C3CC3)n4CC)CC(C)(C)COC(=O)[C@@H]3CCCN(N3)C2=O)C(C)C)C1 (atropisomer, axis not shown)	IC50	10 to 100 nM
CO[C@@H](C)c1ncccc1-c1c2c3cc(ccc3n1CC(F)(F)F)-c1cccc(c1)C[C@H](NC(=O)[C@@H](COC1CN(C(=O)C#CC3(C)OCCO3)C1)C(C)C)C(=O)N1CCC[C@H](N1)C(=O)OCC(C)(C)C2 (atropisomer, axis not shown)	IC50	1000 to 10000 nM
CCn1c(-c2cccnc2[C@H](C)OC)c2c3cc(ccc31)-c1cccc(c1)CC(NC(=O)[C@H](C(C)C)N1CC[C@]3(CCN(C(=O)C#C[C@@H]4COCCN4C4COC4)C3)C1=O)C(=O)N1CCC[C@H](N1)C(=O)OCC(C)(C)C2 (some centres unmarked)	IC50	1000 to 10000 nM
CCn1c(-c2cccnc2[C@H](C)OC)c2c3cc(ccc31)-c1csc(n1)C[C@H](NC(=O)[C@H](C(C)C)N(C)C(=O)N1CCC3(CC1)CN(C(=O)/C=C/C(F)F)C3)C(=O)N1CCC[C@H](N1)C(=O)OCC(C)(C)C2 (atropisomer, axis not shown)	IC50	10 to 100 nM
